# System: NCI-H460 lung
# ASSAY SUMMARY: NCI-60 one-dose screen, 48 h (100 = growth as untreated, 0 = no growth, -100 = all killed)
# REPORTED CONDITIONS: 10 µM unless noted
About 83,000 compounds went through this panel and 20% of them were active in at least one assay; those are over-represented in the sample as a whole.
Each entry below carries its recorded growth.
Quick reminder: number only, in %, skip the unit.

C/C(=N\Nc1ccc([N+](=O)[O-])cn1)c1ccc(N)cc1	110

Challenge: Lab request: please report growth under test system NCI-H460 lung for O=C1OCC2=C1C(c1ccccc1)c1cc3c(cc1N2CCO)OCO3 (stereo unspecified)
Response given: -3.16

Challenge: Request: growth, test system NCI-H460 lung, entry CC(NC(=O)c1ccccc1)C(=O)Nc1ccccc1 (stereo unspecified)
Response given: 118

Challenge: Lab request: please report growth under test system NCI-H460 lung for CCOC(OCC)c1cnc2nc(NC(C)=O)[nH]c(=O)c2n1
Response given: 104

Challenge: What growth appears in the records for this compound with NCI-H460 lung? CCOC(=O)c1ccc2c(c1)[n+](=O)c(C(=O)c1ccc3ccccc3c1)c(C(F)(F)F)n2[O-]
Response given: -100

Challenge: What is its growth for NCI-H460 lung? Entry: CCOC(=O)CCN(CCC(=O)OCC)c1ccccc1
Response given: 111

Challenge: Any idea what growth came out for CCC(=O)NC1=C(Cl)C(=O)C(NC(=O)CC)=C(Cl)C1=O on NCI-H460 lung?
Response given: 108

Challenge: # get_value(readout= growth, system= NCI-H460 lung) for CS(=O)(=O)c1ccc(C(=O)N/N=C/c2ccccc2Cl)cc1
Response given: 101

Challenge: Item COC1(OC)C2(Cl)CCC1(Cl)C(Cl)=C2Cl with NCI-H460 lung - growth?
Response given: 106

Challenge: Param readout = growth; param system = NCI-H460 lung; param query = CCN1C(=O)N(CC)C2C1NN=c1s/c(=C\c3ccco3)c(=O)n12 (stereo unspecified) ; response: value
Response given: 12.9

Challenge: Give growth (NCI-H460 lung) of the following compound: Nc1nc(N)c2cc(NCc3ccc(Cl)c(Cl)c3)ccc2n1
Response given: -75.7
